From: PubChem BioAssay AID1508600

- EXPERIMENT_DESCRIPTION: Components of the Cytosolic LPS Sensing Pathway: Gene Identification via Genome-wide siRNA Screen;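 further: robust z of the log signal after scaling to non-targeting control siRNA wells of the plate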
- RUN_PARAMETERS: RAW264.7 macrophages, IL-1a HTRF, actives lie on both sides, screened at 100 nM (by protocol), cells primed 5 h with Pam3CSK4 first
Out of some 53,000 sequences screened, about 3,700 (7%) were called active. Only a selection was taken, and actives are over-represented in it overall.
Reported z-score is given for each of the following sequences.
OBSERVABLE: z-score

[[record]]
item_sequence = "GGACUUGCUAAGAGACCAATT against Cntn2"
observable = "z-score"
reported_result = 4.74

[[record]]
item_sequence = "GGUGAAGAUAGUAAUACGGTT against Apol7a"
observable = "z-score"
reported_result = -1.02

[[record]]
item_sequence = "GGUUAAAGUCCUUCAGUAUTT against Tubb3"
observable = "z-score"
reported_result = 2.83

[[record]]
item_sequence = "GGACUUAUCUCAUCCAAGATT against Gm9946"
observable = "z-score"
reported_result = 0.39

[[record]]
item_sequence = "GCUGAAGUUUACUAUAACATT against Marco"
observable = "z-score"
reported_result = 0.565

[[record]]
item_sequence = "GGAUCUGACAGCUCAUUUUTT against Casp7"
observable = "z-score"
reported_result = 1.01


* * *

- EXPERIMENT_DESCRIPTION: Components of the Cytosolic LPS Sensing Pathway: Gene Identification via Genome-wide siRNA Screen;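 further: robust z of the log signal after scaling to non-targeting control siRNA wells of the plate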
- RUN_PARAMETERS: RAW264.7 macrophages, IL-1a HTRF, actives lie on both sides, screened at 100 nM (by protocol), cells primed 5 h with Pam3CSK4 first
The whole screen tested about 53,000 sequences, of which about 3,700 (7%) were called active. This excerpt belongs to a sample that is enriched for actives.
Kindly apply the following: yes (1) if z-score is less than 0.1, no (0) in every other case.

[[record]]
item_sequence = "CGUUCAUAUAGAGAACUGUTT against Naip1"
label = "no (0)"

[[record]]
item_sequence = "GGUGUACUUUAUCUCACGATT against Olfr6"
label = "no (0)"

[[record]]
item_sequence = "GGCCUACAGCUGGAAAGAATT against Chrm1"
label = "no (0)"

[[record]]
item_sequence = "GGAACUCUGUAGACAGAAUTT against Lpin1"
label = "no (0)"

[[record]]
item_sequence = "GGAUGGACUCUGUUCCUGUTT against Susd2"
label = "no (0)"

[[record]]
item_sequence = "GCUCUGUUGGAAAGGUUUATT against Exosc6"
label = "yes (1)"

[[record]]
item_sequence = "GGAAAUAGAUUUUCAGCUCTT against Dnase2b"
label = "no (0)"

[[record]]
item_sequence = "GCAGGUUGAACGACAGCGUTT against Dph5"
label = "yes (1)"

[[record]]
item_sequence = "GCUGUUUGACUACAUAAUCTT against Melk"
label = "no (0)"

[[record]]
item_sequence = "GCCAUAACCUACAUUGUCATT against Loxhd1"
label = "yes (1)"

[[record]]
item_sequence = "CCCACUUUCUUUGAUAACUTT against Bcl2l11"
label = "no (0)"

[[record]]
item_sequence = "GCUGAAGACCGACUACAAGTT against Cnih1"
label = "no (0)"

[[record]]
item_sequence = "GGCAAAACAACUUUAUUCCTT against Ucp2"
label = "no (0)"


* * *

- EXPERIMENT_DESCRIPTION: Components of the Cytosolic LPS Sensing Pathway: Gene Identification via Genome-wide siRNA Screen;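 further: robust z of the log signal after scaling to non-targeting control siRNA wells of the plate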
- RUN_PARAMETERS: RAW264.7 macrophages, IL-1a HTRF, actives lie on both sides, screened at 100 nM (by protocol), cells primed 5 h with Pam3CSK4 first
- Procedure: Non-canonical inflammasome activation by cytosolic LPS is a critical component of the host response to Gram-negative bacterial infection, however we lack a comprehensive understanding of the cellular processes that control this pathway. […] Lipofectamine RNAiMAX Transfection Reagent ([…]; Invitrogen) was added in […] serum-free, antibiotic-free media to plate wells using a Thermo Scientific Matrix WellMate and Microplate Stacker. […] The plates were read on an EnVision plate reader (PerkinElmer). […]
Hit rate of the full screen: of about 53,000 sequences, about 3,700 (7%) were called active. The full list was thinned out, with actives kept by preference.
OBSERVABLE: z-score

[[record]]
item_sequence = "GGAAGAAGCUCUAUGCUGATT against Fbxo9"
reported_result = "-0.589 (inactive)"

[[record]]
item_sequence = "GGAGACUCCAACUACUUCATT against Sycp1"
reported_result = "1.23 (inactive)"

[[record]]
item_sequence = "GGAGUUUGAUCAGAUCCUATT against Asf1b"
reported_result = "1.74 (inactive)"

[[record]]
item_sequence = "GCGAAAUCCUGGGCUACUCTT against Dyrk4"
reported_result = "-0.32 (inactive)"

[[record]]
item_sequence = "GGUUCUGGAAGUGAAGGUGTT against Prg2"
reported_result = "-0.00973 (inactive)"

[[record]]
item_sequence = "GGUUACAUAUCAGUUGAAATT against Slc35a3"
reported_result = "0.032 (inactive)"

[[record]]
item_sequence = "GGAUUUAAUGGUAAAUCACTT against Relch"
reported_result = "0.034 (inactive)"

[[record]]
item_sequence = "GCACAGCUUUUUGGAUCUGTT against Zfyve26"
reported_result = "-0.75 (inactive)"

[[record]]
item_sequence = "GGAAAACAAGAGAAGGCGCTT against Pom121"
reported_result = "0.361 (inactive)"

[[record]]
item_sequence = "GGAUAACCUUGAGUAGGUGTT against Olfr906"
reported_result = "0.484 (inactive)"

[[record]]
item_sequence = "GACUAAACAGAUCUUCUCUTT against Klra15"
reported_result = "-0.651 (inactive)"

[[record]]
item_sequence = "GGAUAUAGGUGUGAUCUAGTT against Mxra7"
reported_result = "0.9 (inactive)"

[[record]]
item_sequence = "GCCUUGUAGACCAGUUCUATT against 9530085L02Rik"
reported_result = "2.15 (active)"

[[record]]
item_sequence = "GGAUGCUUACGGGAGACGATT against Tmem9"
reported_result = "-0.595 (inactive)"

[[record]]
item_sequence = "GGAUAGCACAGCCCUACAUTT against Kcns1"
reported_result = "-0.197 (inactive)"

[[record]]
item_sequence = "GGUGUUUGGGAAAGGUCUGTT against Trpm1"
reported_result = "-1.33 (inactive)"

[[record]]
item_sequence = "GCGUAGGUUACGUUCAAGGTT against Ermard"
reported_result = "2.74 (active)"

[[record]]
item_sequence = "GCCAAGACCAUUCAGCCUUTT against Zfp579"
reported_result = "-0.394 (inactive)"

[[record]]
item_sequence = "GGUCUAUCAGAUCAUCAAATT against Pde8a"
reported_result = "0.584 (inactive)"

[[record]]
item_sequence = "GGUUCUUGGAUAAAUCAAGTT against Mrpl40"
reported_result = "2.41 (active)"

[[record]]
item_sequence = "GGUCGGUUGCUUUAGUGAATT against Magee2"
reported_result = "1.42 (inactive)"

[[record]]
item_sequence = "GCCUGGUAGUUAGUCAGAATT against Klf11"
reported_result = "2.4 (active)"

[[record]]
item_sequence = "GGAUAACUGCUUCAUUUCCTT against Agbl1"
reported_result = "0.62 (inactive)"

[[record]]
item_sequence = "GCUUAGAUCUUACCCACCCTT against Ptcra"
reported_result = "2.52 (active)"

[[record]]
item_sequence = "GGGAGGAGAGUGAUUGAGATT against A730013G03Rik"
reported_result = "0.682 (inactive)"

[[record]]
item_sequence = "CCUACCCUAACCAUUACACTT against Enpp5"
reported_result = "-0.267 (inactive)"

[[record]]
item_sequence = "GGACAGAGGACAAGCAGAATT against Ghrl"
reported_result = "-0.532 (inactive)"

[[record]]
item_sequence = "GGGAGAUGAGUUUUCUGAUTT against Cyp2c70"
reported_result = "1.15 (inactive)"

[[record]]
item_sequence = "GGUUCACGAGCUAAGCUGUTT against Sec23b"
reported_result = "-1.07 (inactive)"

[[record]]
item_sequence = "CCAAGUGACUUUAAGGAUGTT against Pcolce"
reported_result = "0.759 (inactive)"

[[record]]
item_sequence = "GUUGUAUUUCUUUGUCCUCTT against Olfr1097"
reported_result = "2.21 (active)"

[[record]]
item_sequence = "GGGCUAAGUACCAAACUCATT against Ly6e"
reported_result = "-1.71 (inactive)"


* * *

- EXPERIMENT_DESCRIPTION: Components of the Cytosolic LPS Sensing Pathway: Gene Identification via Genome-wide siRNA Screen;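 further: robust z of the log signal after scaling to non-targeting control siRNA wells of the plate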
- RUN_PARAMETERS: RAW264.7 macrophages, IL-1a HTRF, actives lie on both sides, screened at 100 nM (by protocol), cells primed 5 h with Pam3CSK4 first
Out of some 53,000 sequences screened, about 3,700 (7%) were called active. Shown is part of a subset that was picked to be rich in actives.
OBSERVABLE: z-score

[[record]]
item_sequence = "GGAUGACCAAGAAUGGGAATT against Dap"
observable = "z-score"
reported_result = 0.341

[[record]]
item_sequence = "CCUGAUCCUCAGUUUGGUGTT against Prl"
observable = "z-score"
reported_result = 0.129

[[record]]
item_sequence = "GCUUACAUCCAAGCCGUCUTT against Prss41"
observable = "z-score"
reported_result = 0.283

[[record]]
item_sequence = "GGAGGUAGGAAUAUGACUUTT against Klrb1c"
observable = "z-score"
reported_result = 0.0825

[[record]]
item_sequence = "GGAUCAUGGGCGAAUGAUGTT against Rae1"
observable = "z-score"
reported_result = -1.41

[[record]]
item_sequence = "CGGGCUGAUUCAACUGGUGTT against Kif1b"
observable = "z-score"
reported_result = 3.64

[[record]]
item_sequence = "GGCUAUGAUGAUUAUAAUGTT against Hnrnph1"
observable = "z-score"
reported_result = 0.724

[[record]]
item_sequence = "CGAACUUCAAGACUGUGAUTT against Cep95"
observable = "z-score"
reported_result = -0.248

[[record]]
item_sequence = "GCUUCGGAAUCGGUUACCATT against Alg2"
observable = "z-score"
reported_result = -1.28

[[record]]
item_sequence = "GGAUUUUGAUCUAAUGAGATT against Zfp354c"
observable = "z-score"
reported_result = 0.366

[[record]]
item_sequence = "GGGUUACCUCCUGACUGUUTT against Olfr930"
observable = "z-score"
reported_result = -1.9

[[record]]
item_sequence = "GGGCGUGAAUUCAGAGAUUTT against Pcdhgb5"
observable = "z-score"
reported_result = -0.00376

[[record]]
item_sequence = "GGCAUAUCUGAGGUGAAUCTT against Sec23b"
observable = "z-score"
reported_result = -1.57

[[record]]
item_sequence = "CCUGUAUUUUACGAUCUUUTT against Best1"
observable = "z-score"
reported_result = 0.103

